Recorded values, source patent US20240409645A1.

# testTarget: T1, mouse IL-2Rγ (mouse, UniProt P34902 23-263)
# T1 construct: also called mo IL-2R
# T1 sequence (looked up): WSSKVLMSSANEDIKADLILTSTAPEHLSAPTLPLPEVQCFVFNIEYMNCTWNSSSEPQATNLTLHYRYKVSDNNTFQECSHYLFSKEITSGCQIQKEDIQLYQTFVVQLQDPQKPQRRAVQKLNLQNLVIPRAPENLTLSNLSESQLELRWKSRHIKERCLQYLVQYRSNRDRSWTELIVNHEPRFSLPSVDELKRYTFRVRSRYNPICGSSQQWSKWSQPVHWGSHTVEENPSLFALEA
# testProtocol: SPR off-rate ranking, periplasmic extract on immobilised protein
# key: entry, value: koff
# unit: s⁻¹ | format: bare number

Would you please look over these solved cases?
>  <binder>
FJ1427_P035MP04D06 (VHH, VHH in periplasmic extract; also called clone nr) VHH: QVQLVESGGGLVQAGGSLRLSCAASGRALSRLAMGWFRQAPGKEREFVVASSWGDDTFYADSVKGRFTFSRDNAKNTVYLQMNSLQPGDTAVYYCAAAPTSFATTAYSSSNSYAYWGQGTQVTVSS

>  <koff [s⁻¹]>
0.0137

$$$$
>  <binder>
FJ1427_P035MP04B08 (VHH, VHH in periplasmic extract; also called clone nr) VHH: QVQLVESGGGLVQAGGSLRLSCVASGRTLSRYAMGWFRQAPGKEREFVTANSWGGDTYYADSVQGRFTFSRDNAKNTVYLQMNSLQPEDTAVYYCAAAPTSFATTAYSSSNSYAYWGQGTQVTVSS

>  <koff [s⁻¹]>
0.113

$$$$
>  <binder>
FJ1427_P035MP04B05 (VHH, VHH in periplasmic extract; also called clone nr) VHH: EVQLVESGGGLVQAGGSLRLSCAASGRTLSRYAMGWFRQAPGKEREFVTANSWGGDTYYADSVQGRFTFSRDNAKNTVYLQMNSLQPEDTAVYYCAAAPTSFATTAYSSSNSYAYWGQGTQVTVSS

>  <koff [s⁻¹]>
0.138

$$$$

Now for a further binder.
Query string: Which koff is listed for FJ1427_P035MP04E09 (VHH, VHH in periplasmic extract; also called clone nr) VHH: QVQLVESGGGLVQAGGSLRLSCAASGRTLSRYAMGWFRQAPGKEREFVTANSWGGDTYYADSVQGRSTFSRDNAKNTVYLQMNSLQPEDTAVYYCAAAPTSFATTAYSSSNSYAYWGQGTQVTVSS ?
Result string: 0.109
